Origin of the recorded values: PubChem BioAssay (NCI)

Test system: KM12 colon
PROTOCOL: NCI tumour cell line growth inhibition, 48 h
PARAMETER: TGI

COMPOUND	SYSTEM TESTED	PARAMETER	OBSERVED MEASUREMENT
O=C1N[C@@H](O)[C@@H]2ON=C(c3ccccc3)[C@H]12	KM12 colon	TGI	> 100 µM
CC(C)(C)c1ccc2c(c1)OCc1n[nH]c(n1)COc1cc(C(C)(C)C)ccc1OCCOCCO2	KM12 colon	TGI	15.1 µM
O=S1(=O)c2ccccc2NC(=S)N1c1ccccc1	KM12 colon	TGI	> 100 µM
COC(=O)NC/C=C\c1nc(CC/C=C\C(=O)OC2CC3CC(=O)O[C@@H](/C=C/CC(C)C)C[C@@H]4CCC(C)C(C[C@@H](OC)CC(C2)O3)O4)co1 (stereo not given in full)	KM12 colon	TGI	> 100 µM
C[C@H]1CCC/C=C/[C@@H]2C[C@H](N)C[C@H]2[C@H](O)/C=C/C(=O)O1	KM12 colon	TGI	> 100 µM
Cc1ccc([N+](=O)[O-])c2c(NCCCN(C)C)ccnc12	KM12 colon	TGI	> 100 µM
CCN(CC)C(=S)SS(=O)(=O)c1ccc(C)cc1	KM12 colon	TGI	30.6 µM
COc1ccc(-c2cc(-c3cc(Cl)ccc3Cl)nc3nc(=S)[nH]c(N)c23)cc1	KM12 colon	TGI	> 100 µM
COC(=O)C(Cc1ccccc1)N/C=C\C(=O)c1ccc(Cl)cc1 (stereo not given)	KM12 colon	TGI	47.1 µM
CCc1cc(=O)n(/C(C)=C/c2ccccc2)n1C	KM12 colon	TGI	> 100 µM

###

Test system: UACC-257 melanoma
PROTOCOL: NCI tumour cell line growth inhibition, 48 h
PARAMETER: TGI

COMPOUND	OBSERVED MEASUREMENT
COc1cc(-c2c3c(cc4c2OCO4)[C@@H](Nc2ccc4c(c2)Cc2cc(N[C@@H]5c6cc7c(cc6C(c6cc(OC)c(O)c(OC)c6)[C@H]6C(=O)OC[C@H]56)OCO7)ccc2-4)[C@H]2COC(=O)[C@@H]2C3)cc(OC)c1O (stereo not given in full)	> 100 µM
CC(C)(C)c1nc2c(o1)C(=Nc1ccc(F)cc1)c1ccccc1C2=O	8.41 µM
Cc1ccsc1C(=S)Nc1ccc(Cl)c(C(=O)OC(C(C)C)C(C)C)c1	> 100 µM
CN(C)C(=S)/N=c1\ss/c(=N\S(=O)(=O)c2ccccc2)n1-c1ccccc1	> 100 µM
CC/C=C\C/C=C\C/C=C\CCCCCCCC(=O)OC(COC(=O)CCCCCCCCCCCCCCCCC)COC1OC(CO)C(O)C(O)C1O (stereo not given)	> 25 µM

###

Tested on: PC-3 prostate
PROTOCOL: NCI tumour cell line growth inhibition, 48 h
PARAMETER: TGI (µM)

COMPOUND	SYSTEM TESTED	VALUE RELATION SIGN	OBSERVED MEASUREMENT
CC[P+](C#Cc1ccccc1)(c1ccccc1)c1ccccc1	PC-3 prostate	=	6.53
Clc1cccc(C2ON=C(c3ccccc3)N2C23CC4CC(CC(C4)C2)C3)c1Cl (configuration not stated)	PC-3 prostate	>	10
COc1ccc2c(-c3cc4ccccc4o3)cc(=O)oc2c1	PC-3 prostate	>	100
COCC(=O)OC1CCn2c1nc1c2C(=O)C(C)=C(NC(C)=O)C1=O (configuration not stated)	PC-3 prostate	=	7.68
CCN(Cc1c(F)cccc1F)c1ccc(CO)c(Cl)c1	PC-3 prostate	=	46.9
O=C(N/N=C/c1ccc(Cl)cc1Cl)c1ccccc1Nc1cccc(C(F)(F)F)c1	PC-3 prostate	=	8.82
CC1(C)OC(CCO)CN1C(=O)OCc1ccccc1 (configuration not stated)	PC-3 prostate	>	100
Cc1ncc(NC(=O)c2ccc(CN3CCN(C)CC3)c(C(F)(F)F)c2)cc1Nc1nccc(-c2cccnc2)n1	PC-3 prostate	=	32.9
FC(F)=C(c1ccc(-c2ccc(Cl)cc2)cc1)C(F)(F)F	PC-3 prostate	=	32.5
COc1cc2c(cc1O)CC[n+]1cc3c(OC)c(OC)ccc3cc1-2	PC-3 prostate	>	100
CNc1ccc2c(c1)Cc1ccccc1-2	PC-3 prostate	>	100
Cc1ccc([N+](=O)[O-])c2c(NCCCN(C)C)ccnc12	PC-3 prostate	>	100
O=C(Nc1cc(-c2ccccc2)[nH]n1)c1ccc(Cl)cc1	PC-3 prostate	>	100
COC(=O)c1cc2c3c(cc(NCCN)c2[nH]1)N(C(=O)c1cc2cc(OC)c(OC)c(OC)c2[nH]1)CC3CCl (configuration not stated)	PC-3 prostate	=	1.01
COc1cc2c(cc1OCCCOc1cc3c(cc1OC)C(=O)N1CCC[C@H]1CN3)N=C[C@@H]1CCCN1C2=O	PC-3 prostate	=	8.4
CCOP(=O)(OCC)c1cc(-c2ccccc2)ccc1N	PC-3 prostate	>	100
Cc1cc(C)nc(NS(=O)(=O)c2ccc(Nc3c4ccccc4nc4c(C(=O)NCCO)cccc34)cc2)n1	PC-3 prostate	>	100
O=C1NN=C(c2c[nH]c3ccccc23)CC1NCc1ccccc1 (configuration not stated)	PC-3 prostate	>	100
FC(F)(F)c1ccc2c(Nc3cccc(C4CC(c5ccccc5)=NN4c4ccc(Cl)cc4)c3)ccnc2c1 (configuration not stated)	PC-3 prostate	=	16.6
COC(=O)c1cc(C(=O)OC)cc(-c2ccc3c(c2)-c2nc4c(c(-c5ccc(OC)cc5)c2CC3)CCc2ccc(-c3cc(C(=O)OC)cc(C(=O)OC)c3)cc2-4)c1	PC-3 prostate	>	100
COc1ccc(N2C(=O)C3c4[nH]c5ccccc5c4C4C(C)CCCC4C3C2=O)cc1 (configuration not stated)	PC-3 prostate	>	100
CCn1c(-c2nonc2N)nc2ccc(F)cc21	PC-3 prostate	>	25
COC(=O)C(Cc1ccccc1)N/C=C\C(=O)c1ccc(Cl)cc1 (configuration not stated)	PC-3 prostate	=	45
CCN(CC)CCCNc1ccc([N+](=O)[O-])c2nc3ccc(OC)cc3c(NCCCN(CC)CC)c12	PC-3 prostate	=	2.9
CC12CCC(C/C1=N\NC(N)=O)C2(C)C (configuration not stated)	PC-3 prostate	>	100
C=CC(=O)N1CCN(c2ncnc3c(F)c(-c4c(O)cccc4F)c(Cl)cc23)CC1	PC-3 prostate	=	30.3
CC/C=C\C/C=C\C/C=C\CCCCCCCC(=O)OC(COC(=O)CCCCCCCCCCCCCCCCC)COC1OC(CO)C(O)C(O)C1O (configuration not stated)	PC-3 prostate	>	25

###

Tested on: SN12C renal
PROTOCOL: NCI tumour cell line growth inhibition, 48 h; in the data active = GI50 below about 0.43 µM; inactive = the rest
Labels: active, inactive

COMPOUND	CLASS LABEL
CCOC(=O)[C@@H](C)C[C@H](Cc1ccccc1)NC(=O)c1csc([C@@H](C[C@H](C(C)C)N(C)C(=O)[C@@H](NC(=O)[C@H]2CCCCN2C)C(C)(C)C)OC(C)=O)n1	active
CCN(CCO)CCNc1ccc(C)c2sc3cc(Cl)ccc3c(=O)c12	inactive
O=C(N/N=C/c1ccc(Cl)cc1Cl)c1ccccc1Nc1cccc(C(F)(F)F)c1	inactive
COC(=O)c1c(O)ccc2[nH]c(C)c(C#N)c12	inactive
Cc1ccc(C(=O)CC(Sc2cccc(Cl)c2Cl)c2ccc(Cl)cc2)cc1C (stereo not given)	inactive

###

Measured TGI, listed per entry.
System: HOP-62 NSCLC
PROTOCOL: NCI tumour cell line growth inhibition, 48 h

COMPOUND	TGI
O=C1N[C@@H](O)[C@@H]2ON=C(c3ccccc3)[C@H]12	> 100 µM
CCOC(=O)c1c(NC(=S)Nc2ccc(C)cc2)sc2c1CCN(C)C2	> 100 µM
Cc1ccc(-n2cc(-c3ccc(Cl)cc3)c3c2N=CN2NC(c4ccco4)=NC32)cc1 (centres undefined)	24 µM
O=C(c1ccccc1)[C@H]1Nc2cnccc2C2c3ccccc3CC21 (some centres undefined)	> 71.4 µM
COC(=O)[C@H]1C=C[C@H](OC2OC(COC(C)=O)C(OC(C)=O)C(OC(C)=O)C2OC(C)=O)n2c(=O)n(-c3ccccc3)c(=O)n21 (some centres undefined)	21.1 µM
C=C1CC2C(=O)N(c3ccccc3)C(=O)C2CC1n1[nH]c(=O)n(Cc2ccccc2)c1=O (centres undefined)	> 100 µM
CCOc1cccc2nc3cccc(C(=O)NCCN(C)C)c3nc12	2.18 µM
O=S1(=O)c2ccccc2NC(=S)N1c1ccccc1	> 100 µM
Cn1c(N)nc2c(nc(OCc3ccccc3)n2C2OC(CO)C(O)C2O)c1=O (centres undefined)	> 100 µM

###

Tested on: OVCAR-4 ovarian
PROTOCOL: NCI tumour cell line growth inhibition, 48 h; in the data active = GI50 below about 0.43 µM; inactive = the rest
Labels: true (1) = active, false (0) = inactive

COMPOUND	SYSTEM TESTED	CLASS LABEL
Cc1ncc(NC(=O)c2ccc(CN3CCN(C)CC3)c(C(F)(F)F)c2)cc1Nc1nccc(-c2cccnc2)n1	OVCAR-4 ovarian	false (0)
FC(F)(F)c1ccc2c(Nc3cccc(C4CC(c5ccccc5)=NN4c4ccc(Cl)cc4)c3)ccnc2c1 (centres undefined)	OVCAR-4 ovarian	false (0)
CNC(=O)c1cc(Oc2ccc(NC(=O)Nc3ccc(Cl)c(OC(F)(F)F)c3)c(F)c2)ccn1	OVCAR-4 ovarian	false (0)
CNC(=O)c1cn(C[C@H](F)CCc2ccc(NC(=O)Cc3cc(OC4CC(F)(F)C4)cc(C)n3)nn2)nn1	OVCAR-4 ovarian	false (0)
CCn1c(-c2nonc2N)nc2ccc(F)cc21	OVCAR-4 ovarian	false (0)
CC(=O)[CH-]C(C)=O.CC(=O)[CH-]C(C)=O.N=CC=N.[Sn+2]	OVCAR-4 ovarian	false (0)
Cc1ccc2/c(=C/c3ccc(N(C)C)cc3)c3cc(-c4ccccc4)[n+](C)n3c2c1	OVCAR-4 ovarian	false (0)
CCN(CCO)CCNc1ccc(C)c2sc3cc(Cl)ccc3c(=O)c12	OVCAR-4 ovarian	false (0)
c1cc[c]([Sn]([S]c2cccc3cccnc23)([c]2ccccc2)[c]2ccccc2)cc1	OVCAR-4 ovarian	true (1)
